Assay: changes in parasitized red cell lysis, either direction – P. falciparum Indochina, OD700, 3 h, PSAC antagonist project, primary screen (AID 1156)
Details: P. falciparum-infected erythrocytes, osmotic lysis, higher = more signal, called active from +8 up or from −8 down
# binarize z-score: threshold 0.2 inclusive, high side Criterion met, low side Criterion not met

>  <compound>
COCCCNC(=O)[C@@]1(Cc2ccccc2)N=C(c2ccc(OCCCO)cc2)O[C@H]1c1ccccc1CN=[N+]=[N-]

>  <classification>
Criterion met

$$$$
>  <compound>
COC(=O)[C@H](Cc1ccccc1)N[C@H](/C=C/C1CC1)[C@@H](O)Cc1ccccc1

>  <classification>
Criterion not met

$$$$
>  <compound>
CCCCCCCCCCC(O)C1C=CC2C(=O)NC(=O)C2N1Nc1ccc(Cl)cc1Cl (stereo unspecified)

>  <classification>
Criterion not met

$$$$
>  <compound>
CN1C(=O)C2C=CC(C(O)c3c(F)cccc3Cl)N(NC(=O)OC(C)(C)C)C2C1=O (stereo unspecified)

>  <classification>
Criterion not met

$$$$
>  <compound>
CCCCC(O)C1C=CC2C(=O)N(C)C(=O)C2N1N1CCCCC1 (stereo unspecified)

>  <classification>
Criterion not met

$$$$
>  <compound>
COCCOC(=O)N1C(=O)[C@@]2(c3cc(C#CC4=CCCCC4)ccc31)[C@H](c1ccc(OCCO)cc1)N1[C@H](c3ccccc3)[C@H](c3ccccc3)OC(=O)[C@H]1[C@@H]2C(=O)N1CCc2cc(OC)c(OC)cc2C1

>  <classification>
Criterion met

$$$$
>  <compound>
COCCCNC(=O)[C@@H]1c2ccccc2C(=O)N(Cc2ccccc2)[C@H]1c1ccc(CO)cc1

>  <classification>
Criterion met

$$$$
>  <compound>
O=C1OCCC=C[C@H]2OC34C=CCN(Cn5nnc6ccccc65)C(=O)[C@H]3N(CCO)C(=O)[C@@H]4C12 (stereo partly specified)

>  <classification>
Criterion met

$$$$
>  <compound>
CN1C(=O)C2C=CC(C(O)C=Cc3ccc([N+](=O)[O-])cc3)N(Nc3ccccc3)C2C1=O (stereo unspecified)

>  <classification>
Criterion met

$$$$
>  <compound>
C=CC[C@]1(C(N)=O)COC(c2ccc(OCCCO)cc2)=N1

>  <classification>
Criterion not met

$$$$
>  <compound>
C=CCC(OC(C)=O)[C@@H]1[C@@H](N(Cc2ccc(-c3ccccc3)cc2)C(=O)Cc2ccc(F)cc2)c2cc(OCCCO)ccc2N1C(=O)c1ccc2ccccc2c1 (stereo partly specified)

>  <classification>
Criterion not met

$$$$
>  <compound>
CCCNC(=O)[C@@H]1c2ccccc2C(=O)N(Cc2ccccc2OC)[C@H]1c1ccc(CO)cc1

>  <classification>
Criterion met

$$$$
>  <compound>
CC1CC/C=C\[C@H]2OC34C=CCN(Cc5ccccc5)C(=O)[C@H]3N(C(C)CO)C(=O)[C@@H]4C2C(=O)O1 (stereo partly specified)

>  <classification>
Criterion met

$$$$
>  <compound>
COC(=O)C(CC#Cc1ccc2c(c1)[C@]1(C(=O)N2)[C@H](c2ccccc2OCCO)N2[C@H](c3ccccc3)[C@H](c3ccccc3)OC(=O)[C@H]2[C@@H]1C(=O)O)C(=O)OC

>  <classification>
Criterion not met

$$$$
>  <compound>
COC(=O)c1c2oc(c1C(=O)OC)C(=O)NC1(CCCCC1)c1cn(nn1)C[C@H](Cc1ccccc1)NC(=O)N[C@H](CO)CC2

>  <classification>
Criterion met

$$$$
>  <compound>
C=CCN1C(=O)[C@]2(Cc3ccccc3)N=C(c3ccc(OCCCO)cc3)O[C@@H]2c2ccccc21

>  <classification>
Criterion met

$$$$
